# Test system: UACC-257 melanoma
# experimentDescription: NCI-60 one-dose screen, 48 h (100 = growth as untreated, 0 = no growth, -100 = all killed)
# testParameters: 10 µM unless noted
About 83,000 compounds went through this panel and 20% of them were active in at least one assay; those are over-represented in the sample as a whole.
resultType: growth (%)
Just the number in %, nothing appended.

Solved entries:
compound	subjectOfTest	growth [%]
COc1ccc(Nc2nccc(N3CCN(c4c5ccc(Cl)cc5nc5ccc(OC)cc45)CC3)n2)cc1	UACC-257 melanoma	102
O=C(CSCC(=O)N/N=C/c1ccccc1O)N/N=C\c1ccccc1O	UACC-257 melanoma	25.6

Note: attention shifts to another entry.
So for C=C1c2c(C)nn(-c3ccc(C#CCOC4OC(CO)C(O)C(O)C4O)cc3)c2N(C)C23C[C@H]1C1(C)c4c(C)nn(-c5ccc(C#CCOC6OC(CO)C(O)C(O)C6O)cc5)c4N(C)C(C)(C[C@H]12)C3 (stereo partly drawn) , the logged growth turned out to be 34.2

###

# Tested on: OVCAR-3 ovarian
# experimentDescription: NCI-60 one-dose screen, 48 h
# testParameters: 10 µM unless noted
Compounds without any hit were thinned out: in the full panel of roughly 83,000, 20% have a hit. The source made the active and inactive calls. The calls were made as follows: active = growth percent below 10; inactive = the rest.
Just give me one of these, please: t = active, f = inactive

As a guide, the following entries are already answered.
smilesText	assignedLabel
COC(=O)[C@]1(CCSC)N[C@H](c2cn(-c3ccccc3)nc2C)[C@@H]2C(=O)N(c3ccccc3)C(=O)[C@@H]21	f
O=C1OCCCCCCCCCC#Cc2ccccc21	f
N#Cc1c(N)[nH]c(S)c1C#N	f

Read the next record carefully.
## Input Tell me the recorded outcome of this test for CC1=CSC2=NCCN12 .
## Output f

###

# System: RPMI-8226 leukemia
# experimentDescription: NCI-60 one-dose screen, 48 h
# testParameters: 10 µM unless noted
The panel holds about 83,000 compounds, 20% with a hit somewhere; the sample as a whole holds those more often. Calls of active or inactive are those of the source. Rule for the calls: active = growth percent below 10; inactive = the rest.
Please answer using one outcome listed in active, inactive

compound	assignedLabel
CC(C)(C)c1ccc(S(=O)(=O)O)s1	inactive
COC1=CC(c2ccc[nH]2)=N/C1=C\c1[nH]c(C)c(C(=O)CCC(=O)Oc2ccc3c(c2)CCC2C3CC[C@]3(C)C(=O)CC[C@@H]23)c1C (stereo not given in full)	inactive

## Input Identify the outcome logged in this assay for the compound shown: c1cnc2n[nH]c(Nc3ncnc4c3sc3ncccc34)c2c1
## Output inactive

## Input # fetch the recorded call for C=C(C)[C@H]1CC/C(C)=C/CC[C@]2(C)O[C@H]2CC/C(COC(C)=O)=C\C1=O here
## Output active

## Input Which result was noted for this compound in the test: COc1cccc(C2C(C#N)=C(N)Oc3cc(OC)ccc32)c1 (stereo not given)
## Output active

## Input Can you look up the reported call for O=C(/C=C/c1ccc(O)c(O)c1)N1CCN(c2ccc(Cl)cc2)CC1 for me?
## Output inactive

## Input Hey, what did the test say about COC(=O)C[C@@H]1CC=CC(=O)/C1=C(O)/C=C/c1ccccc1 ?
## Output inactive

## Input Please indicate how the test categorized CCN1C2=C(SC(=S)C1=C1SC(C(=O)OC)=C(C(=O)OC)S1)SC(=Nc1ccc(OC)cc1)C2=O .
## Output active

## Input Would you mind telling me which call this test gave CC(=O)Nc1ccc2c(c1)Cc1c(F)c(F)c(F)c(F)c1-2 ?
## Output inactive

## Input Dear all, I need the recorded test outcome for CC(=O)c1nc2ccccc2n1CCn1cc(CC(N)C(=O)O)c2ccccc21 (stereo not given) , thank you.
## Output inactive
